- Test: In vitro microsomal stability, rat liver microsomes
- Format: in vitro ADME
- Cond: rat, rat liver microsomes, pH 7.4; read-out: T1/2 @ rLM
Experimental Endpoint: half-life at 1 μM (min)

Answered cases to consult:
- Cc1c(NC(=O)c2cc(-c3ccccn3)on2)cnn1[C@H](C)c1ccc(C(F)(F)F)cc1C(F)(F)F [Compound 97]: 58.7
- C[C@H](c1ccc(C(F)(F)F)cc1C(F)(F)F)n1cc(NC(=O)c2cn(-c3ccccn3)nn2)cn1 [Compound 121]: 58.1
- CC(c1ccc(C(F)(F)F)cc1C(F)(F)F)n1cc(NC(=O)c2cc(-c3ccccn3)on2)cn1 (single isomer, unassigned) [“Enantiomer A” of Example S5]: 121

P: C[C@H](c1ccc(C(F)(F)F)cc1C(F)(F)F)n1cc(NC(=O)c2cc(-c3ncccn3)on2)cn1 [Compound 101]
Q: CCC(c1ccc(C(F)(F)F)cc1C(F)(F)F)n1cc(NC(=O)c2cc(-c3ccccn3)on2)cn1 (centres unmarked) [Compound 1]
Input line: Could you tell me which of P and Q has the lower half-life at 1 μM reading? Write down the label attached to your selection.
Output line: Q

* * *

- Test: In vitro microsomal stability, rat liver microsomes
- Format: in vitro ADME
- Cond: remaining fraction after 30 min; 1 μM compound, 0.5 mg/mL rat liver microsomes, 1 mM NADPH
Experimental Endpoint: Rem. @ rLM (%)

Answered cases to consult:
- CCC(c1ccc(C(F)(F)F)cc1C(F)(F)F)n1cc(NC(=O)c2cc(-c3ccccn3)on2)cn1 (centres unmarked): 51.8
- O=C(Nc1cnn(Cc2ccc(C(F)(F)F)cc2C(F)(F)F)c1)c1cc(-c2ccco2)on1 [Ceapin-A7, reference compound]: 14.5
- Cc1nn([C@@H](C)c2ccc(C(F)(F)F)cc2C(F)(F)F)cc1NC(=O)c1cc(-c2ccccn2)on1: 51.4
- CC(c1ccc(C(F)(F)F)cc1C(F)(F)F)n1cc(NC(=O)c2cc(-c3ccco3)on2)cn1 (single isomer, unassigned) [“Enantiomer A” of Example S6]: 1.4
- CC(c1ccc(C(F)(F)F)cc1C(F)(F)F)n1cc(NC(=O)c2nnc(-c3cnccn3)s2)cn1 (centres unmarked): 43.9

A: O=C(Nc1cnn(Cc2ccc(C(F)(F)F)cc2C(F)(F)F)c1)c1cc(-c2cccs2)on1
B: Cc1c(NC(=O)c2cc(-c3ccco3)on2)cnn1Cc1ccc(C(F)(F)F)cc1C(F)(F)F
Input line: Which of the two gives a bigger number for Rem. @ rLM (%): A or B ? Write down the label attached to your selection.
Output line: B
(B: 69.8%, A: 0.85%)

* * *

List of IC50 values.
- Measurement Target: CYP2C9 (Homo sapiens (Human))
- Sequence (P11712 whole entry): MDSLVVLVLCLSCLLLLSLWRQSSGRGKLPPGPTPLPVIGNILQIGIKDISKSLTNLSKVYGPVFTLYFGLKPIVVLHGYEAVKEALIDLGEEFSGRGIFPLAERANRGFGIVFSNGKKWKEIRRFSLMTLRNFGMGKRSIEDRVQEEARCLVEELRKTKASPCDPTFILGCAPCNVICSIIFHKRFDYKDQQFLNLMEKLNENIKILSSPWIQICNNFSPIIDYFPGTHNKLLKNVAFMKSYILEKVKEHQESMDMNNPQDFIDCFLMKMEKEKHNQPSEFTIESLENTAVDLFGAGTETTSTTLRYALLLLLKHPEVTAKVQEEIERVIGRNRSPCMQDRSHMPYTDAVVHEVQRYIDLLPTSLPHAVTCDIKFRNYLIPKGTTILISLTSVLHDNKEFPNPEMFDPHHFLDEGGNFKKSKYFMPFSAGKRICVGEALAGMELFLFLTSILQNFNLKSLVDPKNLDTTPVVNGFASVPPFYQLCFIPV
- Test: CYP inhibition in human liver microsomes
- Cond: read-out: CYP-2C9; human liver microsomes; probe substrate diclofenac

• O=C(Nc1cnn(Cc2ccc(C(F)(F)F)cc2C(F)(F)F)c1)c1cc(-c2cnccn2)on1 = > 50 µM

Input line: Sample "C[C@H](c1ccc(C(F)(F)F)cc1C(F)(F)F)n1cc(NC(=O)c2cn(-c3ccccn3)nn2)cn1" — what was its IC50?
Output line: > 45.9 µM

Input line: Next molecule: "O=C(Nc1cnn(Cc2ccc(C(F)(F)F)cc2C(F)(F)F)c1)c1cc(-c2ncccn2)on1"
Output line: > 50 µM

The measured values listed here are drawn from patent US20240124434A1.
